Data origin: ChEMBL document CHEMBL1932987

Listed compounds paired with reported Activity
Test system: Salmonella typhimurium
Assay: Genotoxicity in Salmonella Typhimurium expressing episomal lux operon assessed as concentration required to cause toxicity in presence of S9 fraction
Assay type: organism-based
Details: salmonella enterica subsp. enterica serovar typhimurium
State just the number; it will be interpreted in µM.

O=C1c2ccccc2C(=O)c2c1cnc1ccccc21 ... 1
COc1ccc2ncc3c(c2c1)C(=O)c1ccccc1C3=O ... 10
Cc1ccc2ncc3c(c2c1)C(=O)c1ccccc1C3=O ... 10

// recorded Activity for Cc1ccc2c3c(cnc2c1)C(=O)c1ccccc1C3=O : 10

// recorded Activity for Cc1cccc2c3c(cnc12)C(=O)c1ccccc1C3=O : 10

// recorded Activity for O=C1c2ccccc2C(=O)c2c1cnc1ccc(Cl)cc21 : 1

// recorded Activity for O=C1c2ccccc2C(=O)c2c1cnc1ccc(F)cc21 : 1

// recorded Activity for COc1cccc2c3c(cnc12)C(=O)c1ccccc1C3=O : 10

* * *

Test: Cytotoxicity against human HepG2/C3A cells after 24 hrs by neutral red uptake assay
Assay type: cell-based
RECORDED_ENDPOINT: IC50
Please state the value followed by its unit.

Below are worked cases with known answers.
Cc1cccc2c3c(cnc12)C(=O)c1ccccc1C3=O ... 3960 nM
Cc1ccc2ncc3c(c2c1)C(=O)c1ccccc1C3=O ... 1480 nM
COc1cccc2c3c(cnc12)C(=O)c1ccccc1C3=O ... 2400 nM
COc1ccc2ncc3c(c2c1)C(=O)c1ccccc1C3=O ... 950 nM

// recorded IC50 for O=C1c2ccccc2C(=O)c2c1cnc1ccc(Cl)cc21 : 1560 nM

// recorded IC50 for Cc1ccc2c3c(cnc2c1)C(=O)c1ccccc1C3=O : 3210 nM

// recorded IC50 for O=C1c2ccccc2C(=O)c2c1cnc1ccc(F)cc21 : 1090 nM

// recorded IC50 for O=C1c2ccccc2C(=O)c2c1cnc1ccccc21 : 1510 nM

* * *

Assay: Cytotoxicity against mouse J774 cells assessed as viability at 1 uM after 7 days by neutral red uptake assay
Assay type: cell-based
Conditions: read-out: Activity
RECORDED_ENDPOINT: viability at 168 h, 1 µM (%)
State just the number; it will be interpreted in %.

// recorded viability at 168 h, 1 µM for Cc1ccc2c3c(cnc2c1)C(=O)c1ccccc1C3=O : 92.9
